Target: T1, RBP45d (His-RBP45d) (Arabidopsis thaliana, UniProt Q8VXZ9 1-425)
T1 sequence: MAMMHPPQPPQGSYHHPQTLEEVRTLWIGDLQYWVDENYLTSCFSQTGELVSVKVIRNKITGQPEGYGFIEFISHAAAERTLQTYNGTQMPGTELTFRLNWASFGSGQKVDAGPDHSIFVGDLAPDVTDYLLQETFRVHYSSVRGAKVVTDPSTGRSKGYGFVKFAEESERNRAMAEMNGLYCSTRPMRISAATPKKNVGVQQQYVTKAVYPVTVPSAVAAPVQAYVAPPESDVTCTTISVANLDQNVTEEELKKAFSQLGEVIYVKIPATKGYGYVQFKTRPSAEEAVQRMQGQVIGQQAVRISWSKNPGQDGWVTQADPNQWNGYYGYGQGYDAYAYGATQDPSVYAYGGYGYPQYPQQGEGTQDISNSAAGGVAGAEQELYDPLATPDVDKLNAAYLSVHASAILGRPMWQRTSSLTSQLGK
Assay: competition; unlabeled vs Cy5-SOT5-IN7; REMSA; buffer, salt, pH and temperature not given in the material; unlabeled competitor up to at least 6 uM
Conditions: protein: recombinant; tags: His (pET51b); single strand
metric name: binding result

>>> obs_value("CUCAAUAUGGCAAAUUUUGUAAAUC (ssRNA) [SOT5-IN7-M2-NL]")
"binds"
>>> obs_value("CUCAAUAUGAUAAAUUUUGUAAAUC (ssRNA) [SOT5-IN7-NL]")
"binds"
>>> obs_value("CUCAAUAUGGUAAAUUUUGUAAAUC (ssRNA) [SOT5-IN7-M1-NL]")
"binds"

The values you see were collected from paper PMC9813592.
